Reference source: patent US11813306B2

target: human PCSK9 (Homo sapiens); experiment: PCSK9 ligand binding assay (TR-FRET): interference with binding of human PCSK9 to human LDLR; conditions: Human PCSK9 Alexa Fluor 647 / Human LDLR extracellular domain-Europium Kryptate
Sequence (Q8NBP7 153-692): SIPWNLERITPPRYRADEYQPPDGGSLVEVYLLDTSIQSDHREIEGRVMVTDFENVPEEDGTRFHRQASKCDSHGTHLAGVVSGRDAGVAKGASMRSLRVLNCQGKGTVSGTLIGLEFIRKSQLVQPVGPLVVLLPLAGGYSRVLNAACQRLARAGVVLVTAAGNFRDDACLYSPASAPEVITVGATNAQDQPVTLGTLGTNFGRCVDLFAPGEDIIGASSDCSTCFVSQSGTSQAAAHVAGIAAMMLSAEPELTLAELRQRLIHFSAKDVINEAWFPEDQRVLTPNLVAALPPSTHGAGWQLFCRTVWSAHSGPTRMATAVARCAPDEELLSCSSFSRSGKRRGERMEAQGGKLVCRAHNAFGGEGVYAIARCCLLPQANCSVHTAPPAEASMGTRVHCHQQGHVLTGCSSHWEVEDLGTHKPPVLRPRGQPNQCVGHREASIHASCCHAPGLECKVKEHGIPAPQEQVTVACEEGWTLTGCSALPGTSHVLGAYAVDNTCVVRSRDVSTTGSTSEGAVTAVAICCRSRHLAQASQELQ
Sequence (Q8NBP7 31-152 partner limits assumed): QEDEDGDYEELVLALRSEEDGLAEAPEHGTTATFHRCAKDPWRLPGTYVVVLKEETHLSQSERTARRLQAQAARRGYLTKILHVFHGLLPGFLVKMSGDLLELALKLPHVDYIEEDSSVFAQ
pIC50: −log10 of the molar value.

Molecule | pIC50
C[C@H]1C(=O)N[C@@H](CO)C(=O)N[C@@]2(Cc3ccc(Cl)cc3)CCCN(C2)C(=O)[C@H](CC2CC2)CC(=O)N1Cc1c(F)cc(Cl)cc1Oc1ccc(-c2cnc(CNC3CCC3)n2C)cc1 | 9.03
C[C@H]1C(=O)N[C@@H](COC(F)F)C(=O)N[C@@]2(Cc3ccc(Cl)cc3)CCCN(C2)C(=O)[C@H](Cc2ccccn2)CC(=O)N1Cc1ccc(Cl)cc1Oc1ccc(-c2cnc(CN3CCCC3)n2C)cc1 | 9.09
COC[C@@H]1NC(=O)[C@H](C)N(Cc2ccc(Cl)cc2Oc2ccc(-c3cnc(CN(C)C)n3C)cc2)CC[C@@H](Cc2ccccc2)C(=O)N2CCC[C@@](Cc3ccc(Cl)cc3)(C2)NC1=O.O=C(O)C(F)(F)F [Compound 120, trifluoroacetate] | 7.21
COC[C@@H]1NC(=O)[C@H](C)N(Cc2ccc(Cl)cc2Oc2ccc(-c3cnc(CN(C)C)n3C)cc2)C(=O)C[C@@H]([C@@H]2CCc3ccccc32)C(=O)N2CCC[C@@](Cc3ccc(Cl)cc3)(C2)NC1=O.Cl | 8.73

----------
biological target: UniProtKB Q8NBP7; test: PCSK9 ligand binding assay (TR-FRET): interference with binding of human PCSK9 to human LDLR; conditions: Human PCSK9 Alexa Fluor 647 / Human LDLR extracellular domain-Europium Kryptate
pIC50: −log10 of the molar value.
Recorded pIC50 values for a group of compounds are listed next.

Compound | Assay Target | pIC50
C[C@H]1C(=O)N[C@@H](CO)C(=O)N[C@@]2(Cc3ccc(Cl)cc3)CCCN(C2)C(=O)[C@H](C2CC(F)(F)C2)CC(=O)N1Cc1c(F)cc(Cl)cc1Oc1ccc(-c2cnc(CN(C)C)n2C)cc1 [Compound 161] | UniProtKB Q8NBP7 | 9.48
COC[C@@H]1NC(=O)[C@H](C)N(Cc2ccc(Cl)cc2Oc2ccc(-c3cnc(CN4CCCC4)n3C)cc2)C(=O)C[C@@H](Cc2ccccc2)C(=O)N(CCCN(C)C)C[C@@H](Cc2ccc(Cl)cc2)N(C)C1=O.Cl [Compound 116] | UniProtKB Q8NBP7 | 7.71
C[C@H]1C(=O)N[C@@H](CO)C(=O)N(C)[C@H](Cc2ccc(Cl)cc2)CN(C)C(=O)[C@H](Cc2ccccc2)CC(=O)N1Cc1ccc(Cl)cc1Oc1cc(F)c(-c2cnc(CN3CCCC3)n2C)c(F)c1.Cl [Compound 106] | UniProtKB Q8NBP7 | 8.07
C[C@@H](c1ccccc1)[C@@H]1CC(=O)N(Cc2ccc(Cl)cc2Oc2ccc(-c3cnc(CN4CCCC4)n3C)cc2)[C@@H](C)C(=O)N[C@@H](CO)C(=O)N(C)[C@H](Cc2ccc(Cl)cc2)CN(C)C1=O.Cl [Compound 107] | UniProtKB Q8NBP7 | 8.11
COC[C@@H]1NC(=O)[C@H](C)N(Cc2c(F)cc(Cl)cc2Oc2ccc(-c3cnc(CN(C)C)n3C)nc2)C(=O)C[C@@H](C2CC(F)(F)C2)C(=O)N2CCC[C@@](Cc3ccc(Cl)cc3)(C2)N(C)C1=O [Compound 171] | UniProtKB Q8NBP7 | 8.99
COC[C@@H]1NC(=O)[C@H](C)N(Cc2c(F)cc(Cl)cc2Oc2ccc(-c3cnc(CN(C)C)n3C)cc2)C(=O)C[C@@H](CC(F)(F)F)C(=O)N2CCC[C@@](Cc3ccc(Cl)cc3)(C2)N(C)C1=O [Compound 22] | UniProtKB Q8NBP7 | 9.80
COC[C@@H]1NC(=O)[C@H](C)N(Cc2ccc(Cl)cc2Oc2ccc(-c3cnc(CN4CCCC4)n3C)cc2)C(=O)C[C@@H]([C@H]2CCc3ccccc32)C(=O)N(CCC(F)F)C[C@@H](Cc2ccc(Cl)cc2)N(C)C1=O.Cl [Compound 113] | UniProtKB Q8NBP7 | 7.67
COC[C@@H]1NC(=O)[C@H](CCCCN2CCOCC2)N(Cc2ccc(Cl)cc2Oc2ccc(-c3cnc(CN(C)C)n3C)cc2)C(=O)C[C@@H]([C@H]2CCc3ccccc32)C(=O)N(C)C[C@@H](Cc2ccc(Cl)cc2)N(C)C1=O.Cl [Compound 131] | UniProtKB Q8NBP7 | 6.55
